Molecular target: UniProt:P03372
Sequence (P03372 whole entry): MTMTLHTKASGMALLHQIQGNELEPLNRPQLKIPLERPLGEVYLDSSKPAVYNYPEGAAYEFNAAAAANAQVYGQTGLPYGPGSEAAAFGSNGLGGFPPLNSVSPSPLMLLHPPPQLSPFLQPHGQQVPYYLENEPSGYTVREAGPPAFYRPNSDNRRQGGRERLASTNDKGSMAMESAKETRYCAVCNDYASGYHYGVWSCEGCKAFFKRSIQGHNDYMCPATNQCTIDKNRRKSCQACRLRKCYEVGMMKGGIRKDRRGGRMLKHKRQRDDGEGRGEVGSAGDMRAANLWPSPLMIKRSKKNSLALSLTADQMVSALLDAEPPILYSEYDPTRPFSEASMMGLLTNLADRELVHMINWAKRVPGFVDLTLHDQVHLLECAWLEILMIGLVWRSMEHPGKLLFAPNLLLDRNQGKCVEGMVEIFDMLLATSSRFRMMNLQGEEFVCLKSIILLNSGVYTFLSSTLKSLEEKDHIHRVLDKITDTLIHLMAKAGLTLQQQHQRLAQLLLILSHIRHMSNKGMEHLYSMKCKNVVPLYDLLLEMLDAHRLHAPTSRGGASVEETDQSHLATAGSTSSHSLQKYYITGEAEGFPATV
Assay: ERα degradation in T-47D cells (Western blot)
Assay type: cell-based
Settings: 1nM, 4 hours
Below, each entry is listed with its recorded Degradation rate of ERα in T-47D cells (%).
endpoint.name: Degradation rate of ERα in T-47D cells (%)

INSERT INTO assay_data (compound, assay_target, reported_result) VALUES
  ('CN(C(=O)CN1CCC2(CC1)COc1c2ccc(F)c1C(=O)N[C@H]1CCC(=O)NC1=O)C1CCC2(CC1)CN(c1ccc([C@@H]3c4ccc(O)cc4CC[C@@H]3c3ccccc3)cc1)C2 [ER-P-40]', 'UniProt:P03372', 22),
  ('O=C1CCC(N2Cc3c(ccc4c3OCC43CCC4(CC3)CN(C3CCC5(CC3)CN(c3ccc([C@@H]6c7ccc(O)cc7CC[C@@H]6c6ccccc6)cc3)C5)C4)C2=O)C(=O)N1 (some centres unmarked) [ER-P-10]', 'UniProt:P03372', 51),
  ('O=C1CCC(N2Cc3c(ccc4c3OCC43CCC4(CCN(CC5CCN(c6ccc([C@@H]7c8ccc(O)cc8CC[C@@H]7c7ccccc7)cc6)CC5)CC4)CC3)C2=O)C(=O)N1 (some centres unmarked) [ER-P-1]', 'UniProt:P03372', 52),
  ('Cn1c(=O)n(C2CCC(=O)NC2=O)c2cc3c(cc21)C1(CCN(CC2CCC4(CC2)CN(c2ccc([C@@H]5c6ccc(O)cc6CC[C@@H]5c5ccccc5)cc2)C4)CC1)CO3 (some centres unmarked) [ER-P-61]', 'UniProt:P03372', 22),
  ('CN(C(=O)CN1CCC2(CC1)CCC1(CC2)COc2c1ccc1c2CN(C2CCC(=O)NC2=O)C1=O)C1CCC2(CC1)CN(c1ccc([C@@H]3c4ccc(O)cc4CC[C@@H]3c3ccccc3)cc1)C2 (some centres unmarked) [ER-P-20]', 'UniProt:P03372', 38),
  ('O=C1CC[C@H](NC(=O)c2ccc3c(c2F)OCC32CCN(CC3CCN(c4ccc([C@@H]5c6ccc(O)cc6CC[C@@H]5c5ccccc5)cc4)CC3)CC2)C(=O)N1 [ER-P-42]', 'UniProt:P03372', -27),
  ('Cn1c(=O)n(C2CCC(=O)NC2=O)c2cc3c(cc21)C1(CCN(CC2CCC4(CC2)CCN(c2ccc([C@@H]5c6ccc(O)cc6CC[C@@H]5c5ccccc5)cc2)CC4)CC1)CO3 (some centres unmarked) [ER-P-62]', 'UniProt:P03372', 13),
  ('O=C1CCC(Nc2ccc3c(c2)COC[C@H]2CN(CC4CCC(OC5CCN(c6ccc([C@@H]7c8ccc(O)cc8CC[C@@H]7c7ccccc7)cc6)CC5)CC4)CCN32)C(=O)N1 (single isomer, unassigned) [ER-P-50]', 'UniProt:P03372', 4),
  ('O=C1CCC(Nc2ccc3c(c2)OC[C@@H]2CN(C4CC5(CCN(c6ccc([C@@H]7c8ccc(O)cc8CC[C@@H]7c7ccccc7)cc6)CC5)C4)CCN32)C(=O)N1 (some centres unmarked) [ER-P-35]', 'UniProt:P03372', 21),
  ('Cn1c(=O)n(C2CCC(=O)NC2=O)c2cc3c(cc21)C1(CCN(C2CCN(C(=O)C4CCN(c5ccc([C@@H]6c7ccc(O)cc7CC[C@@H]6c6ccccc6)cc5)CC4)CC2)CC1)CO3 (some centres unmarked) [ER-P-14]', 'UniProt:P03372', 64),
  ('O=C1CCC(N2Cc3c(ccc4c3OCC43CCC4(CCN(C5CCN(c6ccc([C@@H]7c8ccc(O)cc8CC[C@@H]7c7ccccc7)cc6)CC5)CC4)CC3)C2=O)C(=O)N1 (some centres unmarked) [ER-P-58]', 'UniProt:P03372', 35),
  ('Cn1c(=O)n(C2CCC(=O)NC2=O)c2ccc3c(c21)OCC31CCN(C2CC3(CCN(c4ccc([C@@H]5c6ccc(O)cc6CC[C@@H]5c5ccccc5)cc4)CC3)C2)CC1 (some centres unmarked) [ER-P-17]', 'UniProt:P03372', 22),
  ('CN(c1ccc2c(c1)OCC21CCN(C[C@H]2CC[C@@H](OC3CCN(c4ccc([C@@H]5c6ccc(O)cc6CC[C@@H]5c5ccccc5)cc4)CC3)CC2)CC1)C1CCC(=O)NC1=O (some centres unmarked) [ER-P-32]', 'UniProt:P03372', -2),
  ('C[C@@H]1Cc2cc(O)ccc2C(c2c(F)cc(N3CCC4(CC3)CC(N3CCC5(CC3)CCC3(CC5)COc5c3ccc3c5CN(C5CCC(=O)NC5=O)C3=O)C4)cc2F)N1CC(F)F (some centres unmarked) [ER-P-27]', 'UniProt:P03372', 20),
  ('O=C1CC[C@H](N2Cc3cc(N4CCN(CC5CCN(c6ccc([C@@H]7c8ccc(O)cc8CC[C@@H]7c7ccccc7)cc6)CC5)CC4)ccc3C2=O)C(=O)N1 [ARV-471, reference compound]', 'UniProt:P03372', 61),
  ('Cn1c(=O)n(C2CCC(=O)NC2=O)c2cc3c(cc21)OC1(CC3)CCN(C[C@H]2CC[C@@H](OC3CCN(c4ccc([C@@H]5c6ccc(O)cc6CC[C@@H]5c5ccccc5)cc4)CC3)CC2)CC1 (some centres unmarked) [ER-P-65]', 'UniProt:P03372', 20),
  ('O=C1CCC(N2Cc3c(ccc4c3OCC43CCC4(CCN(C5CCC6(CC5)CCN(c5ccc([C@@H]7c8ccc(O)cc8CC[C@@H]7c7ccccc7)cc5)CC6)CC4)CC3)C2=O)C(=O)N1 (some centres unmarked) [ER-P-57]', 'UniProt:P03372', 12),
  ('O=C1CCC(Nc2ccc3c(c2)OCC2(CCN(C[C@H]4CC[C@@H](OC5CCN(c6ccc([C@@H]7c8ccc(O)cc8CC[C@@H]7c7ccccc7)cc6)CC5)CC4)CC2)C3)C(=O)N1 (some centres unmarked) [ER-P-41]', 'UniProt:P03372', 17),
  ('C[C@@H]1Cc2cc(O)ccc2C(c2c(F)cc(N3CCC4(CCC(N5CC6(CCC7(CC6)COc6c7ccc7c6CN(C6CCC(=O)NC6=O)C7=O)C5)CC4)CC3)cc2F)N1CC(F)F (some centres unmarked) [ER-P-21]', 'UniProt:P03372', 42),
  ('CN(C(=O)CN1CCC2(CC1)COc1c2ccc2c1n(C)c(=O)n2C1CCC(=O)NC1=O)C1CCC2(CC1)CN(c1ccc([C@@H]3c4ccc(O)cc4CC[C@@H]3c3ccccc3)cc1)C2 (some centres unmarked) [ER-P-64]', 'UniProt:P03372', 56);

----------
System: T-47D cells
Assay: Inhibition of cell proliferation in T-47D cells (CCK-8)
Assay type: cell-based
Details: Homo sapiens, T47D, 144 h, 6 days treatment, CCK-8 cell viability
pIC50: −log10 of the molar value.
// classify: if (pIC50 < 8) Condition met else Condition not met

INSERT INTO assay_data (compound, class_label) VALUES
  ('Cn1c(=O)n(C2CCC(=O)NC2=O)c2cc3c(cc21)C1(CCN(CC2CCC4(CC2)CN(c2ccc([C@@H]5c6ccc(O)cc6CC[C@@H]5c5ccccc5)cc2)C4)CC1)CO3 (some centres unmarked) [ER-P-61]', 'Condition not met'),
  ('C[C@@H]1Cc2cc(O)ccc2C(c2c(F)cc(N3CCC4(CCC(N5CCC6(CC5)COc5c6ccc6c5n(C)c(=O)n6C5CCC(=O)NC5=O)CC4)CC3)cc2F)N1CC(F)F (some centres unmarked) [ER-P-29]', 'Condition not met'),
  ('Cn1c(=O)n(C2CCC(=O)NC2=O)c2ccc3c(c21)OCC31CCN(C2CCN(C(=O)C3CCN(c4ccc([C@@H]5c6ccc(O)cc6CC[C@@H]5c5ccccc5)cc4)CC3)CC2)CC1 (some centres unmarked) [ER-P-13]', 'Condition not met'),
  ('CN(c1ccc2c(c1)OCC21CCN(C[C@H]2CC[C@@H](OC3CCN(c4ccc([C@@H]5c6ccc(O)cc6CC[C@@H]5c5ccccc5)cc4)CC3)CC2)CC1)C1CCC(=O)NC1=O (some centres unmarked) [ER-P-32]', 'Condition met'),
  ('O=C1CCC(NC(=O)c2cc3c(cc2F)CCC2(CCN(CC4CCC(OC5CCN(c6ccc(C7c8ccc(O)cc8CCC7c7ccccc7)cc6)CC5)CC4)CC2)O3)C(=O)N1 (centres unmarked) [ER-P-90]', 'Condition met'),
  ('O=C1CCC(Nc2ccc3c(c2)OCC2(CCN(C[C@H]4CC[C@@H](OC5CCN(c6ccc([C@@H]7c8ccc(O)cc8CC[C@@H]7c7ccccc7)cc6)CC5)CC4)CC2)C3)C(=O)N1 (some centres unmarked) [ER-P-41]', 'Condition met'),
  ('O=C1CC[C@H](N2Cc3cc(N4CCN(CC5CCN(c6ccc([C@@H]7c8ccc(O)cc8CC[C@@H]7c7ccccc7)cc6)CC5)CC4)ccc3C2=O)C(=O)N1 [ARV-471, reference compound]', 'Condition not met'),
  ('O=C1CCC(NC(=O)c2cc3c(cc2F)C2(CCN(CC4CCC(OC5CCN(c6ccc(C7c8ccc(O)cc8CCC7c7ccccc7)cc6)CC5)CC4)CC2)CO3)C(=O)N1 (centres unmarked) [ER-P-87]', 'Condition met'),
  ('Cn1c(=O)n(C2CCC(=O)NC2=O)c2ccc3c(c21)C1(CCN(C2CCN(C(=O)C4CCN(c5ccc([C@@H]6c7ccc(O)cc7CC[C@@H]6c6ccccc6)cc5)CC4)CC2)CC1)CO3 (some centres unmarked) [ER-P-77]', 'Condition not met'),
  ('O=C1CCC(N2Cc3c(ccc4c3OCC43CCC4(CCN(C5CCN(C(=O)C6CCN(c7ccc([C@@H]8c9ccc(O)cc9CC[C@@H]8c8ccccc8)cc7)CC6)CC5)CC4)CC3)C2=O)C(=O)N1 (some centres unmarked) [ER-P-5]', 'Condition not met'),
  ('O=C1CCC(N2Cc3c(ccc4c3OCC43CCC4(CCN(C5CCN(c6ccc([C@@H]7c8ccc(O)cc8CC[C@@H]7c7ccccc7)cc6)CC5)CC4)CC3)C2=O)C(=O)N1 (some centres unmarked) [ER-P-58]', 'Condition not met'),
  ('Cn1c(=O)n(C2CCC(=O)NC2=O)c2cc3c(cc21)C1(CCN(CC2CCN(c4ccc([C@@H]5c6ccc(O)cc6CC[C@@H]5c5ccccc5)cc4)CC2)CC1)CO3 (some centres unmarked) [ER-P-24]', 'Condition met'),
  ('O=C1CC[C@H](NC(=O)c2cc3c(cc2F)N2CCN(C[C@H]4CC[C@@H](OC5CCN(c6ccc([C@@H]7c8ccc(O)cc8CC[C@@H]7c7ccccc7)cc6)CC5)CC4)C[C@@H]2CO3)C(=O)N1 [ER-P-67]', 'Condition met'),
  ('CN(C(=O)CN1CCC2(CC1)CCC1(CC2)COc2c1ccc1c2CN(C2CCC(=O)NC2=O)C1=O)C1CCC2(CC1)CN(c1ccc([C@@H]3c4ccc(O)cc4CC[C@@H]3c3ccccc3)cc1)C2 (some centres unmarked) [ER-P-20]', 'Condition not met'),
  ('Cn1c(=O)n(C2CCC(=O)NC2=O)c2ccc3c(c21)OCC31CCN(C(=O)CN2CCC3(CCN(c4ccc([C@@H]5c6ccc(O)cc6CC[C@@H]5c5ccccc5)cc4)CC3)C2)CC1 (some centres unmarked) [ER-P-68]', 'Condition not met'),
  ('Cn1c(=O)n(C2CCC(=O)NC2=O)c2ccc3c(c21)OCC31CCN(C2CCC3(CC2)CCN(c2ccc([C@@H]4c5ccc(O)cc5CC[C@@H]4c4ccccc4)cc2)CC3)CC1 (some centres unmarked) [ER-P-16]', 'Condition not met'),
  ('C[C@@H]1Cc2cc(O)ccc2C(c2c(F)cc(N3CCC4(CCC(N5CC6(CCC7(CC6)COc6c7ccc7c6CN(C6CCC(=O)NC6=O)C7=O)C5)CC4)CC3)cc2F)N1CC(F)F (some centres unmarked) [ER-P-21]', 'Condition not met'),
  ('Cn1c(=O)n(C2CCC(=O)NC2=O)c2cc3c(cc21)C1(CCN(C2CCC4(CC2)CN(c2ccc([C@@H]5c6ccc(O)cc6CC[C@@H]5c5ccccc5)cc2)C4)CC1)CO3 (some centres unmarked) [ER-P-59]', 'Condition not met');

Reference for the values: patent EP4722219A1
